Tested on: M14 melanoma
Assay: NCI tumour cell line growth inhibition, 48 h
Provide the recorded TGI for the entries that follow.

Lab entry: M14 melanoma assay, compound CCCCCCCCOC(=O)C12Oc3ccc(-c4ccc5c(c4O)C(O)=C4C(=O)CC(C)C(O)C4(C(=O)OCCCCCCCC)O5)c(O)c3C(O)=C1C(=O)CC(C)C2O (centres undefined) , TGI = > 100 µM

Lab entry: M14 melanoma assay, compound `N#C/C(=C\c1c(O)cc(O)cc1O)C(N)=O` , TGI = > 100 µM

Lab entry: M14 melanoma assay, compound CCOC(=O)C1=C(C)NC(=O)NC1c1ccc(OC)cc1OC (centres undefined) , TGI = > 100 µM

Lab entry: M14 melanoma assay, compound Cc1nc2sc(C(=O)Nc3cccc(Br)c3C)c(N)c2cc1C(O)c1ccccc1 (centres undefined) , TGI = 14.7 µM

Lab entry: M14 melanoma assay, compound `COc1cccc(Nc2ncnc3cc(NC(=O)CCl)ccc23)c1` , TGI = 3 µM

Lab entry: M14 melanoma assay, compound `N#C/C(=C\c1cc(O)c(O)c(O)c1)C(N)=O` , TGI = > 100 µM

Lab entry: M14 melanoma assay, compound `C=C1c2nc3ccccc3n2C=C(c2cccc(Cl)c2)N1Cc1ccc(OC)cc1` , TGI = > 44.2 µM

Lab entry: M14 melanoma assay, compound `O=C1Nc2ccc(Br)cc2/C1=N/S(=O)(=O)O` , TGI = > 100 µM

Lab entry: M14 melanoma assay, compound CC1=NN(c2ccc(S(=O)(=O)O)cc2)C2(C1)C(Cl)C(=O)N2c1nc2ccccc2s1 (centres undefined) , TGI = > 100 µM

Lab entry: M14 melanoma assay, compound CC[C@H](C)[C@@H]([C@@H](CC(=O)N1CCC[C@H]1[C@H](OC)[C@@H](C)C(=O)NCCc1ccccc1)OC)N(C)C(=O)C(NC(=O)[C@H](C(C)C)N(C)C)C(C)C (some centres undefined) , TGI = 0.000855 µM

Lab entry: M14 melanoma assay, compound `COc1ccc(Cn2cc(COc3cc(/C=C/C(=O)c4cc(OC)c(OC)c(OC)c4)ccc3OC)nn2)cc1` , TGI = > 100 µM

Lab entry: M14 melanoma assay, compound `COc1cc(-c2nn(-c3ccc(NC(=O)Nc4cc(C(F)(F)F)cc(C(F)(F)F)c4)cc3)cc2-c2ccncc2)ccc1Cl` , TGI = 4.23 µM

Lab entry: M14 melanoma assay, compound O=c1[nH]c2c(c(=O)[nH]1)SC(c1ccccc1)C2 (centres undefined) , TGI = > 100 µM

Lab entry: M14 melanoma assay, compound C=C1C(=O)O[C@H](c2ccoc2)C[C@@H]1[C@@]1(C)CCCC2(C)C(=O)OCC21 (some centres undefined) , TGI = > 100 µM

Lab entry: M14 melanoma assay, compound CCOC(=O)C1=C(OC(OCC)C([Se]c2ccccc2)C(C)C)CCC1 (centres undefined) , TGI = 43.6 µM

Lab entry: M14 melanoma assay, compound Cc1ccc(Sc2ccccc2C23OC(C)(C4C(=O)N(c5ccccc5)C(=O)C42)N(C)C3=O)cc1 (centres undefined) , TGI = > 100 µM

Lab entry: M14 melanoma assay, compound CC(=O)OCC1(C)C(O)CCC2(C)C1CCC1CC3CC12CCC3(O)CO (centres undefined) , TGI = > 100 µM

Lab entry: M14 melanoma assay, compound `O=Cc1cn(CCCCCCCCn2cc(C=O)c3ccccc32)c2ccccc12` , TGI = > 10 µM

Lab entry: M14 melanoma assay, compound `CCN(CC)CCNc1ccc2ncn3c4ccc(OC)cc4c(=O)c1c23` , TGI = 11.7 µM

* * *

Tested on: SK-MEL-28 melanoma
Assay: NCI tumour cell line growth inhibition, 48 h
Provide the recorded GI50 for the entries that follow.

Lab entry: SK-MEL-28 melanoma assay, compound `CCOc1cc(-c2nncn2C)ccc1Nc1ncc2cc(C)nc(NCC(C)(C)C)c2n1` , GI50 = > 100 µM

Lab entry: SK-MEL-28 melanoma assay, compound `COc1ccc(OC)c(Nc2nc3nonc3nc2Nc2cccc(Br)c2)c1` , GI50 = 0.779 µM

Lab entry: SK-MEL-28 melanoma assay, compound `Oc1ccc2c(=S)cc(-c3ccc(Br)cc3)oc2c1O` , GI50 = 2.94 µM

Lab entry: SK-MEL-28 melanoma assay, compound `Cn1ncc(C#N)c1-c1ccc2c(c1)CN([C@H](CN)Cc1cccc(F)c1)C2=O` , GI50 = 3.72 µM

Lab entry: SK-MEL-28 melanoma assay, compound `COc1cc(C(=O)/C=C/c2cc(-c3ccc4c(c3)OCO4)n[nH]2)cc(OC)c1OC` , GI50 = 1.92 µM

Lab entry: SK-MEL-28 melanoma assay, compound `CCN(CC)CCNC(=O)c1cccc2c1-c1ccccc1C2=O` , GI50 = > 100 µM

Lab entry: SK-MEL-28 melanoma assay, compound `COC(=O)c1c[nH]c2cc(OC(C)C)c(OC(C)C)cc2c1=O` , GI50 = > 100 µM

Lab entry: SK-MEL-28 melanoma assay, compound `O=C(/C=C/c1ccccc1)c1cccc2ccccc12` , GI50 = 5.02 µM

Lab entry: SK-MEL-28 melanoma assay, compound `CC(=O)[CH-]C(=O)c1ccccc1.CC(=O)[CH-]C(=O)c1ccccc1.Cl.[O-]c1ccnc2ccccc12.[O-]c1ccnc2ccccc12.[Ti+4]` , GI50 = > 100 µM

Lab entry: SK-MEL-28 melanoma assay, compound Cc1nc2sc(C(=O)Nc3cccc(Br)c3C)c(N)c2cc1C(O)c1ccccc1 (stereo not given) , GI50 = 1.51 µM

* * *

Tested on: UO-31 renal
Assay: NCI tumour cell line growth inhibition, 48 h
Provide the recorded TGI for the entries that follow.
Give the value in µM but do not write µM after it.

Lab entry: UO-31 renal assay, compound C/C=C(\N=C=S)C(=O)OC1C(COC(C)=O)OC([C@]2(O)CC(=O)C(=N)C(C(=O)O)=C2O)C(O)C1OC1CC(OC)C(O)([C@@H](C)OC(=O)[C@@H](C)CC)C(C)O1 (stereo partly drawn) , TGI = 33.3

Lab entry: UO-31 renal assay, compound CCOC(=O)C1=C(C)N(c2ccc(Cl)cc2)C2(O)C=CC(=O)C3=C(O)c4ccccc4C(=O)C312 (stereo not drawn) , TGI = 15.8

Lab entry: UO-31 renal assay, compound `Cc1cc(O)c2c(c1)C(=O)c1c(c(O)cc(O)c1-c1c(O)cc(O)c3c1C(=O)c1cc(C)cc(O)c1C3=O)C2=O` , TGI = 15.8

Lab entry: UO-31 renal assay, compound `COc1cccc2c1C(=O)c1c(O)c3c(c(O)c1C2=O)C[C@@](O)(/C(CO)=N/NC(=O)CCCCCN1C(=O)C=CC1=O)C[C@@H]3O[C@H]1C[C@H](N)[C@H](O)[C@H](C)O1` , TGI = 27.9

* * *

Test system: PC-3 prostate
Assay: NCI tumour cell line growth inhibition, 48 h
Provide the recorded GI50 for the entries that follow.

Note to self: GI50 recorded for `C=C1C(=O)O[C@H]2[C@H]1CC/C(COC(=O)c1cccnc1N)=C\CC[C@@]1(C)O[C@@H]21` was 3.72 µM

Note to self: GI50 recorded for `C=CCn1c2ccccc2c2c3c(c4c5ccccc5n(CC=C)c4c21)C(=O)N(O)C3=O` was 2.69 µM

Note to self: GI50 recorded for `COc1ccc2c(c1)C(=Nc1ccc(F)c(Cl)c1)c1c-2c(Nc2ccc(F)c(Cl)c2)nc2ccccc12` was > 94.6 µM

Note to self: GI50 recorded for `O=C(Oc1ccccc1)N(c1ccccc1)c1ccccc1` was 35.1 µM

Note to self: GI50 recorded for `NCCCNc1nc2ccccc2c2c(=O)c3cc(F)ccc3sc12` was 1.45 µM

Note to self: GI50 recorded for `COc1ccc(Cn2cc(COc3cc(/C=C/C(=O)c4cc(OC)c(OC)c(OC)c4)ccc3OC)nn2)cc1` was 3.63 µM

Note to self: GI50 recorded for `Nc1[nH]nc2nc(-c3cc(Cl)ccc3Cl)cc(-c3ccc(F)cc3)c12` was 28.3 µM

Note to self: GI50 recorded for `O=C(/C=C/c1ccccc1)c1cccc2ccccc12` was 2.81 µM

Note to self: GI50 recorded for COC(=O)C1C(C(=O)O)C2(c3ccccc3)C(=O)C1(c1ccccc1)C(c1ccccc1)=C2c1ccccc1 (configuration not stated) was 15.2 µM

Note to self: GI50 recorded for `CCc1nc(C)cn1C(=O)OCc1nc2nc(Cl)nc(N3CCOCC3)c2[nH]1` was 1.25 µM

Note to self: GI50 recorded for `O=C1/C(=C\c2ccc(F)cc2)CN(C(=O)c2ccccc2F)C/C1=C\c1ccc(F)cc1` was 1.62 µM

Note to self: GI50 recorded for `Cn1c(CCCC(=O)O)nc2cc(N(CCCl)CCCl)ccc21` was > 100 µM
